Assay: yeast display, Sf9 membrane polyspecificity reagent, FACS + sequencing; frameworks hold sequencing errors
measurement_label: polyreactivity (PSR sort gate)

QVQLVESGGGLVQAGGSLRLSCAASGITFFGYAMGWYRQAPGKERELVAGISRSTGRTYYADSVKGRFTISRDNAKNTVYLHMNSLKPEDTAVYYCNAELYPWPGVVRYNYWGQGTQVTVSS :: high polyreactivity
QVQLVESGGGLVQAGGSLRLSCAASGGIFFPNAIGWYRQAPGKERELVAAISWSAGSTYYADSVKGRFTISRDNAKNTVYLQMNSLKPEDTAVYYCAAAGSNYTVWYGYYYWGQGTQVTVSS :: low polyreactivity
QVQLVESGGGLVQAGGSLRLSCAASGRTFSNYAMGWYRQAPGKERELVAAISSGGSTNYADSVKGRFTISRDNAKNTVYLLMNSLKPEDTAVYYCAARQRAYYGPGFDYWGQGTQVTVSS :: low polyreactivity
QVQLVESGGGLVQAGGSLRLSCAASGSTFRRYAMGWYRQAPGKERELVAAITTRGGSTYYADSVKGRFTISRDNAKNSVYLQMNSLKPEDTAVYYCARDYSTYLRTAGDYWGQGTQVTVSS :: low polyreactivity
QVQLVESGGGLVQAGGSLRLTCAASGITFFQYAMGWYRQAPGKERELVAAITWSGGDTYYADSVKGRFTISRDNAKITVYLQMNSLKPEDTAVYYCAAEYVVQYYVYGYTLGYDYWGQGTQVTVSS :: high polyreactivity
QVQLVESGGGLVQAGGSLRLTCAASGSTLNYYAMGWYRQAPGKERELVAAIRSGGNTNYADSVKGRFTISRDNAKNTVYLQMNSLKPEDTAVYYCAKDESYFYDRVPLDYWGQGTQVTVSS :: low polyreactivity
QVQLVESGGGLVQAGGSLRISCAASGGIFFQNAMGWYRQAPGKERELVAAISWSAGSTYYADSVKGRFTISRDNAKNSVDLQMNRQKPEDTAVDSCAGRVGCGRAIDLYYYWGQGTQVTVSS :: low polyreactivity
QVQLVESGGGLVQAGGSLRLSCAASGSILYRYTMGWYRPAPGKERELVAAITKRGGRTYYADSVKGRFTISRDNAKNTVYLQMNSLKPEDTAVYYCAAKYYTGGSFEMYYGGQGTQVTVSS :: high polyreactivity
QVQLEESGGGLGQAGGSLRLSCAASGSIFAYYAMGWYRQAPGKERELVAAISWGGGNTYYADSVKGRFTISRDNAKNNVYLQMNSLKPEDTAVYYCAAEDYYYYGVAYGYWGQGSQVTVSS :: high polyreactivity
QVQLVESGGGLVQAGGSLRLSCAASGFIFAGYAMGWYRQAPGKERELVAAISGSGGRTYYADSVKGRFTISRDNAKNTVYLQMNSLKPEDTAVYYCNAGKQYRYDWGQGTQVTVSS :: high polyreactivity
QFQLVESGGGILQAGGSLRLSCAASGFIFSSYAMGWYRQAPGKERELVAAISKRGGSTYYADSVKGRFTISRDNAKNTVYLQMNSLKPEDTAVYYCARGSYPYRSFWLTSDYWGQVTQVTVSS :: high polyreactivity

###

Test: yeast display, Sf9 membrane polyspecificity reagent, FACS + sequencing; frameworks hold sequencing errors
measurement_label: polyreactivity (PSR sort gate)

QVQLVESGGGLVQAGGSLRLSCADSGSTFLYYGMGWYRQAPGKERELVAGIDGTGSSTYYADSVKGRFTISRDNAKNTVYLQMNSLKPEDTAVYYCAKRYPRYRSRYYYWGQGTQVTVSS :: low polyreactivity
QVQLVESGGGLVQAGGSLRLSCAASGFIFSPNAMGWYRQAPGKEREFVAAIRYSGTSTSYADSVKGRFTISRDNAKNTVYLQMNSLKPEDTAVDYCAAQSRQRTGMYYWGQGTQVTVSS :: high polyreactivity
QVQLVESGGGLVHAGGSLRLSCAASGRIFIANAMGWYRQAPGNERELVAGIRGSGGRTYYADSVKGRFTISRDNAKNTVYLQMNSLKPEDTAVYDCNARTPGRLGRFDYWGQGTQVTVSS :: low polyreactivity
QVQLVESGGGLVQAGGSLRLSCAASGSIFPGNGMGWYRQAPGKEMELVASITSGARTNYADSVKGRFTISRDNAKNTVYFPMNSLIPEDTAVYYCAADIKSSIRRAYDYWGQGSQVTVSS :: high polyreactivity
QVQLVESGGGLVQAGGSLRLSCAASGSIFGFYAMGWYRQAPGKERELVAAITSGDSTHYADSVKGRFTISRDNAKNTVYLQMNSLKPEDTAVYYCAASAPYRYYRSAYYYWGQGTQVTVSS :: low polyreactivity

###

Experiment: yeast display, Sf9 membrane polyspecificity reagent, FACS + sequencing; frameworks hold sequencing errors
measurement_label: polyreactivity (PSR sort gate)

QVQLVESGGGLVQAGGSLRLSCAASGSIFVYNTMGWYREAPGKERELVASITYSGGSTYYADSVKGRFTISRDNAKNTVYLQMNSLKPEDTAVYYCNTDDVALQWDWYPYPYDYWGQGTQVTVSS :: low polyreactivity
QVQLVESGGGLVQAGGSLRLSCAASGSTFNHYTMGWYRQAPGKERELVAAISSRGGGTYYADSVKGRFTISRDNAKNTVYLQMNSLKPEDTAVYYCAALISSGIRHSRDYWGQGTQVTVSS :: high polyreactivity
QVQLVESGGGLVQAGGSLRLSCAASGSIFGLYGMGWYRQAPGKERELVAAISSGGTTNYADSVKGRFTISRDNAKNTVYLQMNSLKPEDTAVYYCAARYSRGAYIYYGWYGYGYWGQGTQVTVSS :: low polyreactivity
QVQHVESGGGLVQARGSLRLSCAASGSIFWYNAMGWYRQAPGTVRELVAAINWSGGSTFYADSVKGRFTISRDNAKNTVYLQMNSLKPEDTAVDYCAADDWYTGYDYWGQGTQVTVSS :: high polyreactivity
QVQLVESGGGLVQAGGSLRLSCAASGLTFDWNTMGWYRQAPGKERELVATITYTGGSTYYADSVKGRFTISRDNAKNTVYLQMNSLKPEDTAVYFCAARRTRYRSYSRVRYTYDYWGQGTQVTVSS :: high polyreactivity

###

Test: yeast display, Sf9 membrane polyspecificity reagent, FACS + sequencing; frameworks hold sequencing errors
measurement_label: polyreactivity (PSR sort gate)

QVQLVESGGGLVQAGGSLRLSCAASGSIFQGNVMGWSRQAPGKERELVAAISSGGRTYYADSVKGRFTISRDNAKNTVYLQMNSLKPEDTAVYYCAASWLTSYAYIMYYWGQGTQVTVSS :: high polyreactivity
QVQLVESGGGLVQAGGSLRLSCAASGFTFRFNAMGWYRQAPGKERELVAAIRQSGGSTYYADSVKGRFTISRDTAKNTVSLQMNSLKPEDTAVYYCATGRSRIRNFGYWGQGTQVTVSS :: high polyreactivity
QVQLVESGGGLVQAGGSLRLICAASGRTFVYYAMGWYRQAPGKERELLAANSLSGSTYYAYSVKGRVTISRDNAKNTVDLHMYSLKPDDTAVYYCARPGGPDRTSSPYPYPYGYWGQGTQVTVSS :: low polyreactivity
QVQLVESGGGLVQAGGSLRLSCAASGGIFSRNAMGWYRQAPGKERELVADISRTGDSTYYADSVKGRFTISRDNAKNTVYLQMNSLKPEDTAVYYCNRDAFVGDRTVRVTTTNWGQGTQVTVSS :: low polyreactivity
QVQLVESGGGLVQAGGSLRLSCAASGRIFDQYAMAWYRQAPGKERELVATISGSGGSTYYADSVKGRFTISRDNAKNTVYLQMNSLKPEDTAVYYCAAVSVSSWYDYWGQGTQVTVSS :: low polyreactivity
QVQLVESGGGLVQAGGSLRLRCAASGFNHKPMGCYRQAPGKERELVAAISYSAGSTYYADSVKGRFTISRDNAKNTVYLQMNSLKPEDTAVYYCDIRYNYFTGTLSRYYSNIYGYWGQGTQVTVSS :: high polyreactivity
QVQLVESGGGLVQAGGSLRLSCAASGSTFKYYTMGWYIQAPGKERELVAGITLSGTTTYYADSEKGRFTISRDNAKNTVYLQMNSLKPEDTAVYYCAADYYHDFNAYYYWGQGTQVTVSS :: low polyreactivity
QVQLVESGGGLVQAGGSLRLSCAASGSTFSYNAMGWYRQAPGKERELVAAISRGGITNYADSVKGRFTISRDNAKNTVYLQMNSLKPEDTAVYYCAVRHVWPWQGYDYWGQGTQVTVSS :: low polyreactivity
QVQLQESGGGLMQAGGSQRLSCAASGSISSYSDMGWYRQAPGKEREFVAGIGYGTTTNYADSVKGRFTTSRDNAKNTVYLQMISMKPEDTAVYYCAAYQGNGYEFYYWGQGTQVTVRS :: low polyreactivity
QVQLVESGGGLDQARGSLRLSCAASGSTFAFYAMGWYRQAPGKERELVAAITGDGDSTYYADSVKGRFTISRDNAKNTVYLQMNSLKPEDTAVYYCAKSSGGGPSSFDYWGQGTQVTVSS :: low polyreactivity
RVQLVESAGGLLQAGGSLRLSCAASGRTFTLYAMGWDRQAPGKDRELVAAIRWSGSSTYYADSVKGRFTISRDYAKHTVYLQINSLKPEATAVYYCAARAGRYERYGYWGQGTQVTVSS :: high polyreactivity
